The measured values listed here are drawn from PubChem BioAssay AID1434.

Test target: Runt-related transcription factor 1 (Homo sapiens) + Core-binding factor subunit beta (Homo sapiens) (UniProt Q01196+Q13951)
Sequence (Q01196 whole entry, looked up, the tested form may be a part): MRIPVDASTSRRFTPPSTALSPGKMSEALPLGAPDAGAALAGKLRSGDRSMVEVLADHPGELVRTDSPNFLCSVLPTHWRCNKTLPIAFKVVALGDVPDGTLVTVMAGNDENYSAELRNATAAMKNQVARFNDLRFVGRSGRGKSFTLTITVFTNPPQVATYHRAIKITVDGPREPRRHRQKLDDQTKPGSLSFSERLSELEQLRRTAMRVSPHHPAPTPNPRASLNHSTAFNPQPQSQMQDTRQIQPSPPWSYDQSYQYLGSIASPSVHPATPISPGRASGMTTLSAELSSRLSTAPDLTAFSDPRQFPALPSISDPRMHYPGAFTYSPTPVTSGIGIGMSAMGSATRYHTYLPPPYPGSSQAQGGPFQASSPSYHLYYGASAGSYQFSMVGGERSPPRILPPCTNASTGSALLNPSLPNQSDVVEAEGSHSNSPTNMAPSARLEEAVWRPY
Sequence (Q13951 whole entry, looked up, the tested form may be a part): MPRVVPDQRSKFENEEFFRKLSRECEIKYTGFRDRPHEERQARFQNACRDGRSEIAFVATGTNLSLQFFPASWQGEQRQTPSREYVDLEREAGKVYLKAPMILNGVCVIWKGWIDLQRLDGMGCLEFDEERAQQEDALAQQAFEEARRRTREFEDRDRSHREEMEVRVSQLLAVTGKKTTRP
Method notes: disruptors of Runt domain/CBFb-SMMHC interaction – biochemical, FRET, Cerulean-Runt, Venus-CBFb-SMMHC, uHTS, primary screen (AID 1434);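 further: inhibitors lower the FRET ratio by blocking Runt binding to CBFb-SMMHC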
Run conditions: Cerulean-Runt/Venus-CBFb-SMMHC FRET ratio 530/480, 1 h; at 20 µM
Hit rate of the full screen: of about 220,000 compounds, about 1,600 (0.73%) were called active.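 How the source made its calls: active means mean inhibition across duplicate retests at 20 µM reaching about 50% (limit read from the data); inactive means the rest, inconclusive results apart.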 What follows is part of a selection rich in actives, with near analogues and random picks from the rest.
Can you answer with just one of these options? active, inactive

Known results for molecules:
COCCCn1c2nc3ccccc3nc2c2c(=O)n(Cc3ccc(Cl)cc3)c(C)nc21: inactive
CCN(CC)c1nc(-c2ccccc2)cc(C(F)(F)F)c1C#N: active
CC(C)N(C)C(=O)CCc1nnc(CCc2c[nH]c3ccccc23)o1: inactive

(Q) Which result was noted for this molecule in the test: COC(=O)CCCC1=CC2=CC(=O)C(C)(OC(=O)c3cccs3)C(=O)C2=CN1CC(C)C (centres undefined)
(A) inactive

(Q) Which result was noted for this molecule in the test: N#Cc1ccc(Oc2ccc(C(F)(F)F)cc2NC(=O)c2ccc(F)cc2)cc1
(A) inactive
